Sourced from paper PMC11027041

- target.entity: UniProt O15379
- Sequence (O15379 whole entry): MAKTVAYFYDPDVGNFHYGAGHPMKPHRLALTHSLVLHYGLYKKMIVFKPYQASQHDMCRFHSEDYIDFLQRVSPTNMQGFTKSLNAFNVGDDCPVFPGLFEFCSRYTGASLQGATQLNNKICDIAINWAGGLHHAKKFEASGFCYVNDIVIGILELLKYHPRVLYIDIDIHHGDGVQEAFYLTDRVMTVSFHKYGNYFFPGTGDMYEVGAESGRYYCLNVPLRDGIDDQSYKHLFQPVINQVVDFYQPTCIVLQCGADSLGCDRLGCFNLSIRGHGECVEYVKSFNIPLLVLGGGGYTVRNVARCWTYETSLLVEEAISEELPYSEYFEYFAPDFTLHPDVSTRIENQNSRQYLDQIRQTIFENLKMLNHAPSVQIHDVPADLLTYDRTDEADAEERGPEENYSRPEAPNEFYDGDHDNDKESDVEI
- Sequence (Q9Y618 395-489 partner limits assumed): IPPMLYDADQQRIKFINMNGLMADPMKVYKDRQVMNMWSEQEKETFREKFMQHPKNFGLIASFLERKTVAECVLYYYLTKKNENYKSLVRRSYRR
property.measured: IC50 (nM)
The answer is to be given in nM; state only the numeric part.

Task item: Give IC50 for the following molecule: COc1ccc(CN2[C@@H](C(=O)NCCCCCCC(=O)NO)Cc3c([nH]c4ccccc34)[C@@H]2C2CC2)cc1 [Compound 13d]
Reply: 32.1
